Values from PubChem BioAssay AID2060487

Field: viability, T/C. Provide a value for each of the molecules that follow.
Test system: 997537-175-T-J1-PDC complex spheroid viability;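 also: spheroids exposed to the agents for 7 days; 100% = DMSO vehicle control viability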
assay_text: Anticancer human tumor 997537-175-T-J1-PDC patient-derived colon adenocarcinoma cell line growth inhibition [GQUAD]
measurement_context: second compound 0.1 µM; first compound 3.16 µM; active compounds read low
Answers are plain numbers, in %.

Example molecules with recorded viability, T/C:
molecule: CC(C)(O)C1CCC(Nc2ccc3ncc(-c4cccc(C(F)(F)F)c4)n3n2)CC1 (stereo unspecified) + Cc1[nH]c2ccc(F)cc2c1-c1nc2c3cccnc3c3ncccc3c2[nH]1
viability, T/C / %: 99.3
//
molecule: COc1ncnc(C2CC2)c1-c1ncc2cnn(Cc3ccc(-c4nc(C(F)(F)F)cn4C(C)C)cc3)c2n1 + Cc1cnc(CNC(=O)c2c(=O)c3ccc(N4CCCN(C)CC4)nc3n3c2sc2ccccc23)cn1
viability, T/C / %: 85

For every listed record, write down its viability, T/C.
1. Cc1cccc(N(C)C(=O)C2C(O)CCN2c2nc(C)cc(C(F)(F)F)c2C#N)c1 (stereo unspecified) + Cc1[nH]c2ccc(F)cc2c1-c1nc2c3cccnc3c3ncccc3c2[nH]1
2. C#Cc1c(F)ccc2cc(O)cc(-c3ncc4c(N5CC6CCC(C5)N6)nc(OCC56CCCN5CC(F)C6)nc4c3F)c12 (stereo unspecified) + Cc1cnc(CNC(=O)c2c(=O)c3ccc(N4CCCN(C)CC4)nc3n3c2sc2ccccc23)cn1

Key:
99
104

For every listed record, write down its viability, T/C.
1. COc1cc(C2c3cc4c(cc3C(OC3OC5COC(C)OC5C(O)C3O)C3COC(=O)C23)OCO4)cc(OC)c1O (stereo unspecified) + CN(C)c1ccc(Nc2c3ccc(NC(=O)CCN4CCCC4)cc3nc3cc(NC(=O)CCN4CCCC4)ccc23)cc1
2. C#Cc1c(F)ccc2cc(O)cc(-c3ncc4c(N5CC6CCC(C5)N6)nc(OCC56CCCN5CC(F)C6)nc4c3F)c12 (stereo unspecified) + Cc1[nH]c2ccc(F)cc2c1-c1nc2c3cccnc3c3ncccc3c2[nH]1

Key:
95.2
30.9

For every listed record, write down its viability, T/C.
1. CC1COCCN1c1cc(-c2ccnn2C)c2ccnc(-c3ccn[nH]3)c2n1 (stereo unspecified) + Cc1cnc(CNC(=O)c2c(=O)c3ccc(N4CCCN(C)CC4)nc3n3c2sc2ccccc23)cn1
2. COc1cccc2c1C(=O)c1c(O)c3c(c(O)c1C2=O)CC(O)(C(=O)CO)CC3OC1CC(N)C(O)C(C)O1 (stereo unspecified) + Cc1[nH]c2ccc(F)cc2c1-c1nc2c3cccnc3c3ncccc3c2[nH]1
3. CCCS(=O)(=O)Nc1ccc(F)c(C(=O)c2c[nH]c3ncc(-c4ccc(Cl)cc4)cc23)c1F + CN(C)c1ccc(Nc2c3ccc(NC(=O)CCN4CCCC4)cc3nc3cc(NC(=O)CCN4CCCC4)ccc23)cc1
4. CC1COCCN1c1cc(-c2ccnn2C)c2ccnc(-c3ccn[nH]3)c2n1 (stereo unspecified) + Cc1[nH]c2ccc(F)cc2c1-c1nc2c3cccnc3c3ncccc3c2[nH]1
5. C=CC(=O)N1CCN(c2nc(=O)n(-c3c(C)ccnc3C(C)C)c3nc(-c4c(O)cccc4F)c(F)cc23)C(C)C1 (stereo unspecified) + Cc1[nH]c2ccc(F)cc2c1-c1nc2c3cccnc3c3ncccc3c2[nH]1

Key:
51.7
96.9
52.1
37.3
101
